- measuredTarget: T1, RecE564 W859A (Escherichia coli K12, UniProt P15032 564-866, W859A)
- T1 sequence: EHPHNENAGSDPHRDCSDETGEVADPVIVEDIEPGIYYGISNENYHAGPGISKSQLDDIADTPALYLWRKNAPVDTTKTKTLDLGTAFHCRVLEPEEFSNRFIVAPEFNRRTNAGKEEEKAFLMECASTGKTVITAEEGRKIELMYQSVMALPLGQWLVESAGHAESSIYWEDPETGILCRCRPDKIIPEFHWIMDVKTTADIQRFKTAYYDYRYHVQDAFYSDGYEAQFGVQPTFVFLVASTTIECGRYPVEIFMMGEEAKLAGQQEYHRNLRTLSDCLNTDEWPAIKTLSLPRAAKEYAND
- methodSummary: fluorescence anisotropy

# binder, Kd [nM]
records = [
    ("F25 (dsDNA) DNA 1: TAGAGCTTAATTGCTGAATCTGGTG DNA 2: CACCAGATTCAGCAATTAAGCTCTA", 350),
]
